Test system: DMS-114 complex spheroids with HUVEC/MSC, growth % test/control
assay_method_text: Anticancer human tumor DMS-114 cell line growth inhibition [AhR];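 note: spheroids exposed to agents for 7 days before readout; 100% = DMSO vehicle control wells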
setup_conditions: second compound 1 µM; first compound 0.0316 µM; stronger effect = lower value
Reported viability, T/C is given for each of the following molecules.
Give a bare numeral; the unit % is implied.

molecule="NS(=O)(=O)OCC1CC(n2ccc3c(NC4CCc5ccccc54)ncnc32)CC1O (stereo not drawn) + CC(CO)NC(=O)c1cc(-c2ccc(Cl)cc2)nn(-c2cnn(C)c2)c1=O" tested_on="DMS-114 complex spheroids with HUVEC/MSC, growth % test/control" readout_number=47.9
molecule="Nc1ccccc1NC(=O)c1ccc(CNC(=O)OCc2cccnc2)cc1 + Cc1cncc(-c2nc(NCCc3c[nH]c4ccccc34)c3ncn(C(C)C)c3n2)c1" tested_on="DMS-114 complex spheroids with HUVEC/MSC, growth % test/control" readout_number=85.8

molecule O=C(c1cc(Cc2n[nH]c(=O)c3ccccc23)ccc1F)N1CCN(C(=O)C2CC2)CC1 + Cc1cncc(-c2nc(NCCc3c[nH]c4ccccc34)c3ncn(C(C)C)c3n2)c1 , viability, T/C observed: 96.7

For COc1cc(Nc2ncc3c(n2)-c2ccc(Cl)cc2C(c2c(F)cccc2OC)=NC3)ccc1C(=O)O + Cc1ccccc1N=Nc1ccc(NC(=O)c2ccnn2C)c(C)c1 the molecule record lists viability, T/C as 58.1

Briefly, viability, T/C measured for COc1cccc2c1C(=O)c1c(O)c3c(c(O)c1C2=O)CC(O)(C(=O)CO)CC3OC1CC(N)C(O)C(C)O1 (stereo not drawn) + CC(CO)NC(=O)c1cc(-c2ccc(Cl)cc2)nn(-c2cnn(C)c2)c1=O : 48.8

// Cn1ncnc1C1c2n[nH]c(=O)c3cc(F)cc(c23)NC1c1ccc(F)cc1 (stereo not drawn) + Cc1ccccc1N=Nc1ccc(NC(=O)c2ccnn2C)c(C)c1 : viability, T/C value = 111

For this molecule ( Nc1ncn(C2CC(O)C(CO)O2)c(=O)n1 (stereo not drawn) + Cc1ccccc1N=Nc1ccc(NC(=O)c2ccnn2C)c(C)c1 ), measured viability, T/C is 108

---

Tested on: DMS-114 complex spheroids with HUVEC/MSC, growth % test/control
assay_method_text: Anticancer human tumor DMS-114 cell line growth inhibition [AhR];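 note: spheroids exposed to agents for 7 days before readout; 100% = DMSO vehicle control wells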
setup_conditions: second compound 1 µM; first compound 0.0316 µM; stronger effect = lower value
The compounds listed here are annotated with their viability, T/C.
Only the number, expressed in %, is required.

Study these solved cases before continuing.
compound="CC1COCCN1c1cc(C2(S(C)(=N)=O)CC2)nc(-c2ccnc3[nH]ccc23)n1 (configuration not stated) + Cc1ccccc1N=Nc1ccc(NC(=O)c2ccnn2C)c(C)c1" tested_on="DMS-114 complex spheroids with HUVEC/MSC, growth % test/control" measured_metric="viability, T/C" readout_number=95.5
compound="O=C(C=Cc1cccc(S(=O)(=O)Nc2ccccc2)c1)NO + Cc1ccccc1N=Nc1ccc(NC(=O)c2ccnn2C)c(C)c1" tested_on="DMS-114 complex spheroids with HUVEC/MSC, growth % test/control" measured_metric="viability, T/C" readout_number=99
compound="CC(C)c1c(-c2ccccc2)nc2c(C#N)c[nH]n2c1=O + Cc1cncc(-c2nc(NCCc3c[nH]c4ccccc34)c3ncn(C(C)C)c3n2)c1" tested_on="DMS-114 complex spheroids with HUVEC/MSC, growth % test/control" measured_metric="viability, T/C" readout_number=107
compound="COc1cc(C2c3cc4c(cc3C(OC3OC5COC(C)OC5C(O)C3O)C3COC(=O)C23)OCO4)cc(OC)c1O (configuration not stated) + CC(CO)NC(=O)c1cc(-c2ccc(Cl)cc2)nn(-c2cnn(C)c2)c1=O" tested_on="DMS-114 complex spheroids with HUVEC/MSC, growth % test/control" measured_metric="viability, T/C" readout_number=97.7

Consider O=C(C=Cc1cccc(S(=O)(=O)Nc2ccccc2)c1)NO + Cc1cncc(-c2nc(NCCc3c[nH]c4ccccc34)c3ncn(C(C)C)c3n2)c1 . Its measured viability, T/C is 90.1

Input COc1cccc2c1C(=O)c1c(O)c3c(c(O)c1C2=O)CC(O)(C(=O)CO)CC3OC1CC(N)C(O)C(C)O1 (configuration not stated) + Cc1cncc(-c2nc(NCCc3c[nH]c4ccccc34)c3ncn(C(C)C)c3n2)c1 . Output viability, T/C: 27.6

Memo: Nc1ccccc1NC(=O)c1ccc(CNC(=O)OCc2cccnc2)cc1 + CC(CO)NC(=O)c1cc(-c2ccc(Cl)cc2)nn(-c2cnn(C)c2)c1=O , reported viability, T/C: 91.2
